- Assay system: Neutrophil elastase (Homo sapiens) (UniProt P08246)
- Sequence (P08246 whole entry): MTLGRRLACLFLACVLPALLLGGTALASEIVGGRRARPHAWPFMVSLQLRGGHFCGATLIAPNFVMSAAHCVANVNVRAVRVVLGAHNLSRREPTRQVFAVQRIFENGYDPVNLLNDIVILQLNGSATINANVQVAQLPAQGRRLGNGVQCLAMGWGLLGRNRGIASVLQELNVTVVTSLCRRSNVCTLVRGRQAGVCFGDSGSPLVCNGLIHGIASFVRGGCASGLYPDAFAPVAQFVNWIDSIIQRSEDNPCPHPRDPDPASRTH
- Method summary: The second order inactivation rate constant expressed as inhibition of human leukocyte elastase (HLE). Inhibitor concentrations were 0.07-710 uM
K obs / 1 values by entry
Numeric answer only, unit M⁻¹ s⁻¹ assumed.

Here's what some known entries look like.
1. Nc1ccc2c(Cl)c(OCCCBr)oc(=O)c2c1 4000
2. O=C(Nc1ccc2c(Cl)c(OCCBr)oc(=O)c2c1)Nc1cccc2ccccc12 390000
3. CC(=O)Nc1ccc2c(Cl)c(OCCCBr)oc(=O)c2c1 24400

Continue with the molecule presented below.
input: What value of measured K obs / 1 is listed for C[C@H](NC(=O)Nc1ccc2c(Cl)c(OCCBr)oc(=O)c2c1)c1cccc2ccccc12 ?
output: 170000

====

- Assay system: Chymotrypsin-like elastase family member 2A (Sus scrofa) (UniProt P08419)
- Sequence (P08419 whole entry): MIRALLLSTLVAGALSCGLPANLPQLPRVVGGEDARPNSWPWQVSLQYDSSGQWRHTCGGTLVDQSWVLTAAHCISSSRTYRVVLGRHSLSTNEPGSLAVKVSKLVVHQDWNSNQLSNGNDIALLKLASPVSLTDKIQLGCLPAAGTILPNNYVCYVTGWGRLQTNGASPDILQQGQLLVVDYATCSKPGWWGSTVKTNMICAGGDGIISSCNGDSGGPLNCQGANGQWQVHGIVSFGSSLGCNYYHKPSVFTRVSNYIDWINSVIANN
- Method summary: The second order inactivation rate constant was expressed as inhibition of porcine pancreatic elastase (PPE).Inhibitor concentrations were 2-600 uM
Endpoint name: k obs / 1 (M⁻¹ s⁻¹)
Reply with just the number (in M⁻¹ s⁻¹).

Known results for compounds:
Compound	k obs / 1, M⁻¹ s⁻¹
COc1oc(=O)c2cc(NC(=O)[C@H](Cc3ccccc3)NC(=O)c3ccc(C)cc3)ccc2c1Cl	83
COc1oc(=O)c2cc(NC(=O)[C@H](Cc3ccccc3)NC(=O)c3ccccc3)ccc2c1Cl	530
COc1oc(=O)c2cc(NC(=O)[C@H](Cc3ccccc3)NC(=O)c3ccc([N+](=O)[O-])cc3)ccc2c1Cl	64
COc1oc(=O)c2cc(NC(=O)[C@H](Cc3c[nH]c4ccccc34)NC(=O)OC(C)(C)C)ccc2c1Cl	5800
COc1oc(=O)c2cc(NC(=O)C(Cc3ccccc3)NC(=O)c3ccc(NC(=O)Nc4ccccc4)cc3)ccc2c1Cl (configuration not stated)	68

input: Given COc1oc(=O)c2cc(NC(=O)C(Cc3ccccc3)NC(=O)c3cccc(NC(=O)Nc4ccccc4)c3)ccc2c1Cl (configuration not stated) , state its recorded k obs / 1.
output: 54

input: Cool, now COc1oc(=O)c2cc(NC(=O)[C@H](Cc3ccccc3)NC(=O)c3cccc(C)c3)ccc2c1Cl
output: 1600

====

- Assay system: Chymotrypsin-like elastase family member 2A (Sus scrofa) (UniProt P08419)
- Method summary: The second order inactivation rate constant expressed as inhibition of porcine pancreatic elastase (PPE).Inhibitor concentrations were 0.04-2.0 mM
Endpoint name: K obs / 1 (M⁻¹ s⁻¹)
Hi! Could you send only the number? It should be in M⁻¹ s⁻¹, unit omitted.

Here's what some known entries look like.
Compound	Units label	K obs / 1
CC(Br)COc1oc(=O)c2cc(N)ccc2c1Cl (stereo not drawn)	M⁻¹ s⁻¹	62
C[C@H](NC(=O)Nc1ccc2c(Cl)c(OCCBr)oc(=O)c2c1)c1ccccc1	M⁻¹ s⁻¹	9900
C[C@@H](NC(=O)Nc1ccc2c(Cl)c(OCCBr)oc(=O)c2c1)c1ccccc1	M⁻¹ s⁻¹	2660

input: For the compound C[C@H](NC(=O)OC(C)(C)C)C(=O)N[C@@H](C)C(=O)Nc1ccc2c(Cl)c(OCCBr)oc(=O)c2c1 , what K obs / 1 is on record?
output: 1670

input: Another compound to look at: C[C@H](NC(=O)Nc1ccc2c(Cl)c(OCCBr)oc(=O)c2c1)c1cccc2ccccc12
output: 40

input: Same again, this time with Cc1cccc(C(=O)N[C@@H](Cc2ccccc2)C(=O)Nc2ccc3c(Cl)c(OCCBr)oc(=O)c3c2)c1
output: 3500

input: What would you report for O=C(Nc1ccccc1)Nc1ccc2c(Cl)c(OCCCBr)oc(=O)c2c1 ?
output: 4

input: Can you handle COC(=O)CCC(=O)Nc1ccc2c(Cl)c(OCCBr)oc(=O)c2c1 next?
output: 1500
